- method: Plasma exposure (dried blood spot) after single oral dose
- Type: in vivo
- reported_conditions: male, Sprague Dawley, rat, whole blood (dried blood spot), po, 0.03 mg/kg, oral 0.03 mg/kg, 2 h, FU 0.053, read-out: Unbound Concentration, Mean
parameter: concentration at 2 h (nM)

| compound | experimental_value |
| --- | --- |
| O=c1c2nnc(C3(C4CC4)CC3)n2c2c(n1CC1CC1)CCCC2 [BTTQ] | 2.66 |

====

- method: Plasma exposure (dried blood spot) after single oral dose
- Format: in vivo
- reported_conditions: male, Sprague Dawley, rat, whole blood (dried blood spot), po, 1 mg/kg, oral 1 mg/kg, 24 h, FU 0.053, read-out: Unbound Concentration, Mean

| compound | concentration at 24 h, nM |
| --- | --- |
| O=c1c2nnc(C3(C4CC4)CC3)n2c2c(n1CC1CC1)CCCC2 [BTTQ] | 2.13 |

====

- method: Plasma exposure (dried blood spot) after single oral dose
- Format: in vivo
- reported_conditions: male, Sprague Dawley, rat, whole blood (dried blood spot), po, 0.03 mg/kg, oral 0.03 mg/kg, 6 h, dried blood spot, read-out: Concentration, Mean

| compound | concentration at 6 h |
| --- | --- |
| O=c1c2nnc(C3(C4CC4)CC3)n2c2c(n1CC1CC1)CCCC2 [BTTQ] | 0.022 µM |

====

- method: Plasma exposure (dried blood spot) after single oral dose
- Type: in vivo
- reported_conditions: male, Sprague Dawley, rat, whole blood (dried blood spot), po, 1 mg/kg, oral 1 mg/kg, 5 h, FU 0.053, read-out: Unbound Concentration, Mean
parameter: concentration at 5 h (nM)

| line_notation | unit_descriptor | experimental_value |
| --- | --- | --- |
| O=c1c2nnc(C3(C4CC4)CC3)n2c2c(n1CC1CC1)CCCC2 | nM | 49.6 |

====

- method: Plasma exposure (dried blood spot) after single oral dose
- Format: in vivo
- reported_conditions: male, Sprague Dawley, rat, whole blood (dried blood spot), po, 0.03 mg/kg, oral 0.03 mg/kg, 4 h, FU 0.053, read-out: Unbound Concentration, Mean

| line_notation | concentration at 4 h, nM |
| --- | --- |
| O=c1c2nnc(C3(C4CC4)CC3)n2c2c(n1CC1CC1)CCCC2 | 1.81 |

====

- method: Plasma exposure (dried blood spot) after single oral dose
- Type: in vivo
- reported_conditions: male, Sprague Dawley, rat, whole blood (dried blood spot), po, 3 mg/kg, oral 3 mg/kg, 2 h, dried blood spot, read-out: Concentration, individual animals

| line_notation | concentration at 2 h (µM) |
| --- | --- |
| O=c1c2nnc(C3(C4CC4)CC3)n2c2c(n1CC1CC1)CCCC2 | 3.14 |

====

- method: Plasma exposure (dried blood spot) after single oral dose
- Assay type: in vivo
- reported_conditions: male, Sprague Dawley, rat, whole blood (dried blood spot), po, 0.1 mg/kg, oral 0.1 mg/kg, 6 h, FU 0.053, read-out: Unbound Concentration, individual animals
parameter: concentration at 6 h

| molecule | experimental_value |
| --- | --- |
| O=c1c2nnc(C3(C4CC4)CC3)n2c2c(n1CC1CC1)CCCC2 [BTTQ] | 4.62 nM |

====

- method: Plasma exposure (dried blood spot) after single oral dose
- Format: in vivo
- reported_conditions: male, Sprague Dawley, rat, whole blood (dried blood spot), po, 1 mg/kg, oral 1 mg/kg, 6 h, dried blood spot, read-out: Concentration, Mean

| compound | concentration at 6 h |
| --- | --- |
| O=c1c2nnc(C3(C4CC4)CC3)n2c2c(n1CC1CC1)CCCC2 [BTTQ] | 780 nM |

Reference source for all entries: paper PMC7506137
